Reference for the values: patent US10117916B2

# experimental.target: HLA-A*02:01 (Homo sapiens, UniProt P04439, D140Y/D185E/D98H/E176V/E277Q/G131W/G231S/I119V/I121R/I166T/I218V/L300P/L318F/N151K/N90K/P208A/P217A/Q86G/Q94H/R138H/R169H/T345S)
# assay.info: MHC binding assay: UV-ligand exchange with β2m ELISA (peptide exchange yield)
# condition.details: MHC class I binding score; binding to HLA-A*02:01 ranged by peptide exchange yield (UV-ligand exchange, β2m ELISA)
property: Peptide Exchange

Examples with their reported Peptide Exchange follow.
>>> recorded_value("305 (LLFPQIEGIKI; listed as Homo sapiens) [compound 305]")
"″+++″ (≥50 = +++)"
>>> recorded_value("63 (SLAHVAGCEL; listed as Homo sapiens) [compound 63]")
"″+++″ (≥50 = +++)"
>>> recorded_value("138 (NLLDIDAPVTV; listed as Homo sapiens) [compound 138]")
"″+++″ (≥50 = +++)"
>>> recorded_value("36 (FILTHVDQL; listed as Homo sapiens) [compound 36]")
"″++++″ (≥75% = ++++)"
>>> recorded_value("301 (AASPIITLV; listed as Homo sapiens) [compound 301]")
"″+++″ (≥50 = +++)"

Tell me measured Peptide Exchange for 261 (SLVEAQGWLV; listed as Homo sapiens) [compound 261] please. ″+++″ (≥50 = +++)

Tell me measured Peptide Exchange for 283 (ILQPMDIHV; listed as Homo sapiens) [compound 283] please. ″+++″ (≥50 = +++)

Tell me measured Peptide Exchange for 69 (GLHQREIFL; listed as Homo sapiens) [compound 69] please. ″+++″ (≥50 = +++)

Tell me measured Peptide Exchange for 4 (VIAELPPKVSV; listed as Homo sapiens) [compound 4] please. ″+++″ (≥50 = +++)

Tell me measured Peptide Exchange for 170 (TLTFRVETV; listed as Homo sapiens) [compound 170] please. ″+++″ (≥50 = +++)

----------
# experimental.target: HLA-A*02:01 (Homo sapiens, UniProt P04439, D140Y/D185E/D98H/E176V/E277Q/G131W/G231S/I119V/I121R/I166T/I218V/L300P/L318F/N151K/N90K/P208A/P217A/Q86G/Q94H/R138H/R169H/T345S)
# assay.info: MHC binding assay: UV-ligand exchange with β2m ELISA (peptide exchange yield)
# condition.details: MHC class I binding score; binding to HLA-A*02:01 ranged by peptide exchange yield (UV-ligand exchange, β2m ELISA)
property: Peptide Exchange

>>> recorded_value("106 (FMASHLDYL; listed as Homo sapiens) [compound 106]")
"″+++″ (≥50 = +++)"
>>> recorded_value("26 (AVLLVLPLV; listed as Homo sapiens) [compound 26]")
"″+++″ (≥50 = +++)"
>>> recorded_value("280 (YTLDSLYWSV; listed as Homo sapiens) [compound 280]")
"″+++″ (≥50 = +++)"

----------
# experimental.target: HLA-A*02:01 (Homo sapiens, UniProt P04439, D140Y/D185E/D98H/E176V/E277Q/G131W/G231S/I119V/I121R/I166T/I218V/L300P/L318F/N151K/N90K/P208A/P217A/Q86G/Q94H/R138H/R169H/T345S)
# assay.info: MHC binding assay: UV-ligand exchange with β2m ELISA (peptide exchange yield)
# condition.details: MHC class I binding score; binding to HLA-A*02:01 ranged by peptide exchange yield (UV-ligand exchange, β2m ELISA)
property: Peptide Exchange

Examples with their reported Peptide Exchange follow.
>>> recorded_value("282 (LLRDGIELV; listed as Homo sapiens) [compound 282]")
"″+++″ (≥50 = +++)"
>>> recorded_value("303 (ILSQPTPSL; listed as Homo sapiens) [compound 303]")
"″+++″ (≥50 = +++)"
>>> recorded_value("270 (TVLPVPPLSV; listed as Homo sapiens) [compound 270]")
"″+++″ (≥50 = +++)"
>>> recorded_value("32 (FIDKFTPPV; listed as Homo sapiens) [compound 32]")
"″++++″ (≥75% = ++++)"

Tell me measured Peptide Exchange for 237 (GLQENLDVVV; listed as Homo sapiens) [compound 237] please. ″++++″ (≥75% = ++++)

Tell me measured Peptide Exchange for 149 (SLDNGGYYI; listed as Homo sapiens) [compound 149] please. ″+++″ (≥50 = +++)

Tell me measured Peptide Exchange for 331 (VLWELAHLPTL; listed as Homo sapiens) [compound 331] please. ″+++″ (≥50 = +++)

Tell me measured Peptide Exchange for 384 (YMIGSEVGNYL; listed as Homo sapiens) [compound 384] please. ″++++″ (≥75% = ++++)

----------
# experimental.target: HLA-A*02:01 (Homo sapiens, UniProt P04439, D140Y/D185E/D98H/E176V/E277Q/G131W/G231S/I119V/I121R/I166T/I218V/L300P/L318F/N151K/N90K/P208A/P217A/Q86G/Q94H/R138H/R169H/T345S)
# assay.info: MHC binding assay: UV-ligand exchange with β2m ELISA (peptide exchange yield)
# condition.details: MHC class I binding score; binding to HLA-A*02:01 ranged by peptide exchange yield (UV-ligand exchange, β2m ELISA)
property: Peptide Exchange

Examples with their reported Peptide Exchange follow.
>>> recorded_value("86 (HLYPGAVTI; listed as Homo sapiens) [compound 86]")
"″+++″ (≥50 = +++)"
>>> recorded_value("376 (VLYNQRVEEI; listed as Homo sapiens) [compound 376]")
"″+++″ (≥50 = +++)"
>>> recorded_value("269 (TLTDEQFLV; listed as Homo sapiens) [compound 269]")
"″++″ (≥20% = ++)"
>>> recorded_value("367 (NLWSLVAKV; listed as Homo sapiens) [compound 367]")
"″+++″ (≥50 = +++)"
>>> recorded_value("281 (NLLDDRGMTAL; listed as Homo sapiens) [compound 281]")
"″+++″ (≥50 = +++)"
>>> recorded_value("35 (FILPSSLYL; listed as Homo sapiens) [compound 35]")
"″+++″ (≥50 = +++)"

Tell me measured Peptide Exchange for 102 (IQDRAVPSL; listed as Homo sapiens) [compound 102] please. ″++″ (≥20% = ++)

Tell me measured Peptide Exchange for 166 (TLDPNQVSL; listed as Homo sapiens) [compound 166] please. ″++″ (≥20% = ++)

Tell me measured Peptide Exchange for 167 (TLDTSKLYV; listed as Homo sapiens) [compound 167] please. ″+++″ (≥50 = +++)

Tell me measured Peptide Exchange for 297 (FLVEPQEDTRL; listed as Homo sapiens) [compound 297] please. ″+++″ (≥50 = +++)

Tell me measured Peptide Exchange for 306 (VVAEELENV; listed as Homo sapiens) [compound 306] please. ″++″ (≥20% = ++)

Tell me measured Peptide Exchange for 158 (SLPEAPLDV; listed as Homo sapiens) [compound 158] please. ″+++″ (≥50 = +++)

Tell me measured Peptide Exchange for 292 (AAALIIHHV; listed as Homo sapiens) [compound 292] please. ″+++″ (≥50 = +++)

Tell me measured Peptide Exchange for 330 (VLMWEIYSL; listed as Homo sapiens) [compound 330] please. ″+++″ (≥50 = +++)

Tell me measured Peptide Exchange for 379 (YLAELVTPIL; listed as Homo sapiens) [compound 379] please. ″+++″ (≥50 = +++)

Tell me measured Peptide Exchange for 7 (ALLERTGYTL; listed as Homo sapiens) [compound 7] please. ″+++″ (≥50 = +++)

Tell me measured Peptide Exchange for 119 (VLPAEFFEV; listed as Homo sapiens) [compound 119] please. ″+++″ (≥50 = +++)

----------
# experimental.target: HLA-A*02:01 (Homo sapiens, UniProt P04439, D140Y/D185E/D98H/E176V/E277Q/G131W/G231S/I119V/I121R/I166T/I218V/L300P/L318F/N151K/N90K/P208A/P217A/Q86G/Q94H/R138H/R169H/T345S)
# assay.info: MHC binding assay: UV-ligand exchange with β2m ELISA (peptide exchange yield)
# condition.details: MHC class I binding score; binding to HLA-A*02:01 ranged by peptide exchange yield (UV-ligand exchange, β2m ELISA)
property: Peptide Exchange

>>> recorded_value("222 (ALWELSLKI; listed as Homo sapiens) [compound 222]")
"″+++″ (≥50 = +++)"
>>> recorded_value("263 (SQWEDIHVV; listed as Homo sapiens) [compound 263]")
"″+++″ (≥50 = +++)"
>>> recorded_value("266 (TLLDQLDTQL; listed as Homo sapiens) [compound 266]")
"″++″ (≥20% = ++)"
>>> recorded_value("271 (VIRNIVEAA; listed as Homo sapiens) [compound 271]")
"″++″ (≥20% = ++)"
>>> recorded_value("335 (YLYQEQYFI; listed as Homo sapiens) [compound 335]")
"″+++″ (≥50 = +++)"
>>> recorded_value("346 (VLVQVSPSL; listed as Homo sapiens) [compound 346]")
"″+++″ (≥50 = +++)"
>>> recorded_value("169 (TLLLGLTEV; listed as Homo sapiens) [compound 169]")
"″+++″ (≥50 = +++)"
>>> recorded_value("80 (VLIEDELEEL; listed as Homo sapiens) [compound 80]")
"″++″ (≥20% = ++)"

Tell me measured Peptide Exchange for 75 (GLSIFAQDLRL; listed as Homo sapiens) [compound 75] please. ″++″ (≥20% = ++)
